target or test system: human DLL3 on DMS-153 cells (human) (UniProt Q9NYJ7)
Sequence (Q9NYJ7 27-618 limits assumed): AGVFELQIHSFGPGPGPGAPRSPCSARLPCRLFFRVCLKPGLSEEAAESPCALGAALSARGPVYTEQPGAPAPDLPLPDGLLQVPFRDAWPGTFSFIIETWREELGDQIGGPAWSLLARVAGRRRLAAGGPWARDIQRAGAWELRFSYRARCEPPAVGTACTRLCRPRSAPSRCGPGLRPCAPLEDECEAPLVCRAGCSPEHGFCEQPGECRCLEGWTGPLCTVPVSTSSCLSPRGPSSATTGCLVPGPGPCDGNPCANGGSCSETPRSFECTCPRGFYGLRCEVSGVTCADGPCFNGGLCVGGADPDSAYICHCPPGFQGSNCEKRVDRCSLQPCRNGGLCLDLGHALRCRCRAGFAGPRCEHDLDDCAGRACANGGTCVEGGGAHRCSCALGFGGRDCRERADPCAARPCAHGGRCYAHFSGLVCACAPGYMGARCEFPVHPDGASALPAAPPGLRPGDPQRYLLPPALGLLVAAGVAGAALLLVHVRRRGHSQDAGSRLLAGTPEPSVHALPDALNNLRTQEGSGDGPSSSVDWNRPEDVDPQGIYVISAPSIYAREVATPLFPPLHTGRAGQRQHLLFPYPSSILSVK
protocol text: cell-based or functional assay
observable: DMS-153 TDCC EC50 (conditioned medium, human T cells) (nM)
Reply with just the number (in nM).

DMS-153 TDCC EC50 (conditioned medium, human T cells) for anti-DLL3 trispecific protein, DLL3 binder 4H04 (protein, part only; not given: anti-CD3 fragment and anti-albumin sdAb, part only) chain, part: EVQLVESGGGLVQPGGSLTLSCAASGSSVKFLSMAWYRQAPGKKRELVAGVSADGSTDYIDSVKGRFTISRDNAKNSVYLQMNSLRAEDTAVYYCYAYEWTTRYTYWGQGTLVTVSSGGGGSGGGSGGGGSGGGSHHHHHH ?
0.051

And then anti-DLL3 trispecific protein, DLL3 binder 3H011 (protein, part only; not given: CD3 binder and albumin binder, part only) chain, part: EVQLVESGGGLVQPGGSLTLSCAASGSSVKFLSMAWYRQAPGKKRELVAGISADGSTVYIDSVKGRFTISRDNAKNSVYLQMNSLRAEDTAVYYCYAYRWPTRYTYWGQGTLVTVSSGGGGSGGGSGGGGSGGGSHHHHHH , what is it?
0.12

And then anti-DLL3 trispecific protein, DLL3 binder 2E01 (protein, part only; not given: anti-CD3 and anti-albumin domains, part only) chain, part: EVQLVESGGGLVQPGGSLTLSCVASGSTSSINAMGWYRRAPFKQGELPAGISPDGTKAYADSAKVRFTISRDNAKNSVYLQMNSLRAEDTAVYYCYYFHTVCGTSMGYWGQGTLVTVSSGGGGSGGGSGGGGSGGGSHHHHHH , what is it?
0.033

And then anti-DLL3 trispecific protein, DLL3 binder 2E02 (protein, part only; not given: anti-CD3 fragment and anti-albumin domain, part only) chain, part: EVQLVESGGGLVQPGGSLTLSCVASGSTSAINAMGWYRRAPGKQRELVAGISSDGSKVYVDSVKGRFTISRDNAKNSVYLQMNSLRAEDTAVYYCYYFRTVSGSSQRYWGQGTLVTVSSGGGGSGGGSGGGGSGGGSHHHHHH , what is it?
0.059

And then anti-DLL3 trispecific protein, DLL3 binder 4E02 (protein, part only; not given: anti-CD3 and anti-albumin domains, part only) chain, part: EVQLVESGGGLVQPGGSLTLSCAASGSQVSFLSMAWYRQAPGKKRELVAGISADGSTVYIDSVKGRFTISRDNAKNSVYLQMNSLRAEDTAVYYCYAYRWSTRYTYWGQGTLVTVSSGGGGSGGGSGGGGSGGGSHHHHHH , what is it?
0.041

And then anti-DLL3 trispecific protein, DLL3 binder 4C06 (protein, part only; not given: anti-CD3 fragment and anti-albumin sdAb, part only) chain, part: EVQLVESGGGLVQPGGSLTLSCAASNSSVSKLSMAWYRQAPGKKRELVAGISADGSTAYIDSVKGRFTISRDNAKNSVYLQMNSLRAEDTAVYYCYAYRWSTRYTYWGQGTLVTVSSGGGGSGGGSGGGGSGGGSHHHHHH , what is it?
0.068

And then anti-DLL3 trispecific protein, DLL3 binder 3C04 (protein, part only; not given: CD3 binder and albumin binder, part only) chain, part: EVQLVESGGGLVQPGGSLTLSCAASGSHVSFLSMAWYRQAPGKKRELVAGISADGPTDYIDSVKGRFTISRDNAKNSVYLQMNSLRAEDTAVYYCYAYRWDTRYTYWGQGTLVTVSSGGGGSGGGSGGGGSGGGSHHHHHH , what is it?
0.052

These entries and their values trace back to patent US20200095340A1.
